Consider the following compounds and their measured IC50 readings.
# target.entity: Receptor tyrosine-protein kinase erbB-2 [1-775,'YVMA',776-1255] (Homo sapiens, UniProt P04626)
# Construct: 1-775,'YVMA',776-1255
# Sequence (P04626 with tags, fused parts or gaps INS775YVMA limits assumed): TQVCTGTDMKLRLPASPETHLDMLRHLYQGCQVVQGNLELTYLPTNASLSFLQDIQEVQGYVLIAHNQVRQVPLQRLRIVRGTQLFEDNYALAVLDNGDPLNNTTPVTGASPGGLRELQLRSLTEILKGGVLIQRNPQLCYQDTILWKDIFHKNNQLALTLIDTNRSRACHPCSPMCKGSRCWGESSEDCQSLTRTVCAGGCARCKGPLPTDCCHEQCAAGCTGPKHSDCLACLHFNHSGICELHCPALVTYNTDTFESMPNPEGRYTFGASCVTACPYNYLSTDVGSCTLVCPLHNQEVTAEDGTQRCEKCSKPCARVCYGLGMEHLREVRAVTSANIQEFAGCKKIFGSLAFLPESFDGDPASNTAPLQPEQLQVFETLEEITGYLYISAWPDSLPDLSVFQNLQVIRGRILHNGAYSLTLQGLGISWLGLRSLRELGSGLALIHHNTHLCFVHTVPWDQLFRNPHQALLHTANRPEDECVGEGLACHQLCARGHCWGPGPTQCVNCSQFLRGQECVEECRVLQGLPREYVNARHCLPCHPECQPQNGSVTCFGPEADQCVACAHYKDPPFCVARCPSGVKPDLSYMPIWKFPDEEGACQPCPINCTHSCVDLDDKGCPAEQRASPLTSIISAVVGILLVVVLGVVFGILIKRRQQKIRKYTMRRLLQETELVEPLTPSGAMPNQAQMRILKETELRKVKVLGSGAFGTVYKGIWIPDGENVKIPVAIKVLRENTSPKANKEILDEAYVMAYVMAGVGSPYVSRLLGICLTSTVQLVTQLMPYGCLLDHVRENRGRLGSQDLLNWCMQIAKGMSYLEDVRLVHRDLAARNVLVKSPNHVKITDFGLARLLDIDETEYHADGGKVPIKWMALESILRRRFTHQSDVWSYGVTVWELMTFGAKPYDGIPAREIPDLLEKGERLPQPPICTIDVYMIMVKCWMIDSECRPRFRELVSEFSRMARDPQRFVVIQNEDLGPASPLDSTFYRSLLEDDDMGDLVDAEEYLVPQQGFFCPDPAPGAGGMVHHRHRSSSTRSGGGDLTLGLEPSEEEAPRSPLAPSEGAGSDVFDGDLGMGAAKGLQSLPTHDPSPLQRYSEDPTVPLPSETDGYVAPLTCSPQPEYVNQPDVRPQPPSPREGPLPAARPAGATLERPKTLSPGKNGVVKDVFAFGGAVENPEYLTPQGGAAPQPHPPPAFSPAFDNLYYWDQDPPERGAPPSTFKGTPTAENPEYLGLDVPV
# assay.details: Inhibitory Activity of Compounds Against HER2 A775_G776insYVMA mutant enzyme
parameter: IC50 (nM)

1) COc1cc(N(C)CCN(C)C)c(N)cc1Nc1ncc(Cl)c(Nc2ccccc2NS(C)(=O)=O)n1
14
2) C=CC(=O)Nc1cc(N)c(OC)cc1N(C)CCN1CCCCC1
0.3
3) C=CC(=O)Nc1cc(Nc2ncc(Cl)c(Nc3cccc4c3N(S(C)(=O)=O)CC4)n2)c(OC)cc1N(C)CCN(C)C(=O)OC(C)(C)C
81
4) CC(C)N(c1ccccc1Nc1nc(Cl)ncc1Cl)S(C)(=O)=O
6
5) Cc1cccc(Nc2nc(Cl)ncc2Cl)c1N(C)S(C)(=O)=O
20
6) CC(=O)N(C)c1c([N+](=O)[O-])ccc(C)c1C
52
7) Cc1ccc(Nc2nc(Cl)ncc2Cl)c(NS(C)(=O)=O)c1C
10
8) CCc1cccc(Nc2nc(Cl)ncc2Cl)c1N(C)S(C)(=O)=O
30
9) CS(=O)(=O)N1CCc2cccc(Nc3nc(Cl)ncc3C#N)c21
33
10) CC(=O)Nc1c(Nc2nc(Cl)ncc2Cl)ccc(C)c1C
107
11) CCCS(=O)(=O)Nc1ccccc1Nc1nc(Cl)ncc1C
80
12) C=CC(=O)Nc1cc(N)c(OC)cc1N(C)CCN1CCCC1
5
13) O=S1(=O)CCCN1c1ccccc1Nc1nc(Cl)ncc1Cl
2
14) C=CC(=O)Nc1cc(Nc2ncc(Cl)c(Nc3cccc4c3N(S(C)(=O)=O)CCC4)n2)c(OC)cc1N(C)CCN(C)C(=O)OC(C)(C)C
90
15) COC(=O)c1cnc(Cl)nc1Nc1cccc2c1N(S(C)(=O)=O)CCC2
1
